target: G protein-coupled receptor 119 (GPR-119) (Mesocricetus auratus); construct: hamster-derived β-cells containing G protein-coupled receptor 119 (GPR-119), HIT-T15 cells; host or cells: HIT-T15 (hamster pancreatic β-cells); test: Evaluation of cAMP activity in HIT-T15 cells (HTRF cAMP dynamic kit); assay type: cell-based, hamster; settings: cAMP activation, 1 h at 37° C., six concentrations, read-out: EC50
Sequence (A0A1U8CD06 1-334): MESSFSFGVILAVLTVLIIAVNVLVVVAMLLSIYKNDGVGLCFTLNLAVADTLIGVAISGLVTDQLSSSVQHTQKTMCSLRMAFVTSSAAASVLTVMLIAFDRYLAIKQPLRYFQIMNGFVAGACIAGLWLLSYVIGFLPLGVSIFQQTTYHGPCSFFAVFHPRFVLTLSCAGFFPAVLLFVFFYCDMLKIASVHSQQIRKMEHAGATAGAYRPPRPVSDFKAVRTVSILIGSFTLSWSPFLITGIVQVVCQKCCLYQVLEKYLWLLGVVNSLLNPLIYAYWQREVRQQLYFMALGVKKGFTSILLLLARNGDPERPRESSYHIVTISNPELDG
measured.endpoint: EC50 (nM)
Entry rule: numbers only, all in nM.

A selection of reference data follows.
CC(C)c1noc(N2CCC(COc3ccc(C4=CCC(C(=O)N5CCC(C#N)CC5)CC4)cc3)CC2)n1 (centres unmarked)	12
CCc1cnc(N2CCC(COc3ccc(C4=CCC(C(=O)N5CCN(CC)CC5)CC4)cc3)CC2)nc1 (centres unmarked)	100
CC(C)c1noc(N2CCC(COc3ccc(C4=CCC(C(=O)NC[C@@H](O)CO)CC4)cc3)CC2)n1 (some centres unmarked)	85
CC(C)c1noc(N2CCC(COc3ccc(C4=CCC(C(=O)N5CCN(C6CC6)CC5)CC4)cc3)CC2)n1 (centres unmarked)	21

Please turn your attention to the following entry.
Fill in: EC50 of CC(C)c1noc(N2CCC(COc3ccc(C4=CCC(C(=O)NCCO)CC4)cc3F)CC2)n1 (centres unmarked) is ___
80
